protocol: NCI Yeast Anticancer Drug Screen. Data for the mec2-1 strain (AID 157)
particulars: S. cerevisiae mec2-1 strain, at 100.0 µM
Compounds without any hit were thinned out: in the full panel of roughly 79,000, 15% have a hit. The source made the active and inactive calls. Rule as the data show it: active = growth inhibition above about 70%; inactive = the rest.
Result category, one only: active, inactive

Some entries whose results are on file:
Tell me the assay call for CCCCCCCCC/C=C/C=C/C(=O)NCC(=O)NC1C(O)C(O)C(Nc2ncnc3nc[nH]c23)OC1C(O)CO (centres undefined) please. inactive

Moving on to NC(=S)N/N=C\c1nccc2ccccc12 active

Moving on to NC1=NS(=O)(=O)N=C(N)C1=Cc1ccc([N+](=O)[O-])o1 active

We next turn to a different molecule, shown below.
Tell me the assay call for CC[C@@]1(O)C(=O)OCc2c1cc1n(c2=O)Cc2cc3c(CN(C)C)c(O)ccc3nc2-1 please. inactive
